ASSAY SYSTEM: UniProtKB P03366
ASSAY PROTOCOL: HIV-1 reverse transcriptase assay with homopolymeric template/primers
Type: biochemical
CONDITIONS USED: IC50 HIV-1 RT Poly rU.dA ([3H]dATP)
Please respond with reported IC50 for every item in the list.

IN: Supply reported IC50 belonging to this compound: O=C(O)P(=O)(O)O [PFA, phosphonoformic acid, reference compound]
OUT: 0.75 µM

IN: Hello, please tell me recorded IC50 for this one: Nc1ccn([C@H]2CC[C@@H](COP(=O)(O)OP(=O)(O)OP(=O)(O)O)O2)c(=O)n1 [ddCTP, reference compound]
OUT: > 20 µM

* * *

I'd be grateful if you could share measured IC50 for these entries.
ASSAY SYSTEM: VZV DNA polymerase (Varicella-zoster virus, UniProt P09252)
Sequence (P09252 whole entry): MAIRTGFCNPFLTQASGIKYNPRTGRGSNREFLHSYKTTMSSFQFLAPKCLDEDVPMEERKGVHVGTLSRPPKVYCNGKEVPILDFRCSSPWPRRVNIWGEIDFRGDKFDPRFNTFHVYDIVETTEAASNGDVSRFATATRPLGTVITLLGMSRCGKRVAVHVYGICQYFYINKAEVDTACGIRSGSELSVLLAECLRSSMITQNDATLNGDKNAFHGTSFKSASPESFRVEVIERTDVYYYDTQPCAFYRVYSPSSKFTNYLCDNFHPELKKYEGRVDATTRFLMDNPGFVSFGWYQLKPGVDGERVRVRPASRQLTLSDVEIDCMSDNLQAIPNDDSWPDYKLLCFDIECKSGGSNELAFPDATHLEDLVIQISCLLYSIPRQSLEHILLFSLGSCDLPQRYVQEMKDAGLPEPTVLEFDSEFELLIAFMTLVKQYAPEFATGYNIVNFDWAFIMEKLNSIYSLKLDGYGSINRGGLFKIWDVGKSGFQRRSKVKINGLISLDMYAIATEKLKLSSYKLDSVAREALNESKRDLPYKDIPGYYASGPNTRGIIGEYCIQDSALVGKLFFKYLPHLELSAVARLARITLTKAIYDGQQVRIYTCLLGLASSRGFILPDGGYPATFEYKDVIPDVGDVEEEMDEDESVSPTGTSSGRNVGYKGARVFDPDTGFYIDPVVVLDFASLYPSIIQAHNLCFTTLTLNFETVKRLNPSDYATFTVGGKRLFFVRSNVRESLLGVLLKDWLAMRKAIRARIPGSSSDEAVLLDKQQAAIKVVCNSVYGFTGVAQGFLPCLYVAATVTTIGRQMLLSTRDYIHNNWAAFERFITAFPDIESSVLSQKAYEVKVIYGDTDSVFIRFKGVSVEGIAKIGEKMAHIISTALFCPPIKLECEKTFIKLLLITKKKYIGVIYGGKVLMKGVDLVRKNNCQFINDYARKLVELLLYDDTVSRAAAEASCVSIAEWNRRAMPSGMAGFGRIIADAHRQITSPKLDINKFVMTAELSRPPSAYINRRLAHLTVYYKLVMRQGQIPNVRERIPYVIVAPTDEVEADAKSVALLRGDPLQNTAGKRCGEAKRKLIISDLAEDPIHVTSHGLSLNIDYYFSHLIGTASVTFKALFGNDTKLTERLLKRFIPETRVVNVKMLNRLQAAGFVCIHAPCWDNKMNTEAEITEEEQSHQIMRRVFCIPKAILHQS
ASSAY PROTOCOL: Enzyme assay with VZV DNA polymerase
Assay type: biochemical
Unit µM implied. Number only.

IN: Could you please provide reported IC50 for O=C(O)C(OC/C=C\Cn1cc(F)c(=O)[nH]c1=O)P(=O)(O)O (stereo not drawn) ? Thanks!
OUT: 27

IN: Write down IC50 measured for item Cc1cn(Cc2ccccc2COC(C(=O)O)P(=O)(O)O)c(=O)[nH]c1=O (stereo not drawn)
OUT: 2.9

IN: Provide one value: measured IC50 of Cc1cn(Cc2cn(CCOC(C(=O)O)P(=O)(O)O)nn2)c(=O)[nH]c1=O (stereo not drawn)
OUT: 24

IN: Tell us which IC50 value is on record for Nc1ncnc2c1ncn2C/C=C\COC(C(=O)O)P(=O)(O)O (stereo not drawn)
OUT: 3.3

IN: Specify IC50 for O=c1[nH]c(=O)n([C@H]2C[C@H](O)[C@@H](COP(=O)(O)OP(=O)(O)OP(=O)(O)O)O2)cc1/C=C/Br [BVDU-TP, reference compound] and stop.
OUT: 0.49

IN: Input Cc1cn(CCCCOC(C(=O)O)P(=O)(O)O)c(=O)[nH]c1=O (stereo not drawn) , output reported IC50.
OUT: 27

IN: Given Nc1ccn(C/C=C\COC(C(=O)O)P(=O)(O)O)c(=O)n1 (stereo not drawn) , respond with its IC50.
OUT: 2.9

IN: Using known records, supply IC50 for Cc1cn(C/C=C\COC(C(=O)O)P(=O)(O)O)c(=O)[nH]c1=O (stereo not drawn)
OUT: 2.2

IN: Given the compound Nc1nc2c(ncn2C/C=C\COC(C(=O)O)P(=O)(O)O)c(=O)[nH]1 (stereo not drawn) , write its reported IC50.
OUT: 2.9

* * *

ASSAY SYSTEM: Human DNA Pol β (Homo sapiens)
ASSAY PROTOCOL: Enzyme assay with human DNA polymerase β
Format: biochemical
What IC50 was measured for each of the following?

IN: State its IC50 for this compound: O=C(O)P(=O)(O)O [PFA, phosphonoformic acid, reference compound]
OUT: > 100 µM

IN: Return IC50 (reported value) for this compound: Nc1nc2c(ncn2C/C=C\COC(C(=O)O)P(=O)(O)O)c(=O)[nH]1 (centres unmarked) [Compound 6l]
OUT: > 500 µM

IN: Tell me measured IC50 for Nc1ccn(C/C=C\COC(C(=O)O)P(=O)(O)O)c(=O)n1 (centres unmarked) [Compound 6m] please.
OUT: > 500 µM

IN: Specify measured IC50 for Cc1cn(C/C=C\COC(C(=O)O)P(=O)(O)O)c(=O)[nH]c1=O (centres unmarked) [Compound 6g] .
OUT: > 500 µM

IN: Recall and state the measured IC50 for O=C(O)C(OC/C=C\Cn1cc(F)c(=O)[nH]c1=O)P(=O)(O)O (centres unmarked) [Compound 6i] .
OUT: > 500 µM
